# Experimental system: UniProt:P31214
# Sequence (P31214 whole entry): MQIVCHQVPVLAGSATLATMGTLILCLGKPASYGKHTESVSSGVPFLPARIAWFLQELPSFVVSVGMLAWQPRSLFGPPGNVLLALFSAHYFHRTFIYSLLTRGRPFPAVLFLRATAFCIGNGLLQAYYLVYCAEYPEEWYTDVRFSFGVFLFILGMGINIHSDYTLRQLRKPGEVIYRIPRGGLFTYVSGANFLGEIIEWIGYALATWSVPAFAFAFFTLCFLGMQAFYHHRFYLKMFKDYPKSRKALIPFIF
pIC50: −log10 of the molar value.

Molecule: CC(C)(C)NC(=O)[C@H]1CC[C@H]2[C@@H]3CC[C@H]4NC(=O)C=C[C@]4(C)[C@H]3CC[C@]12C [finasteride]
pIC50: 9.00

* * *

# Experimental system: rat type 1 5α-reductase (Rattus norvegicus, UniProt P24008)
# Sequence (P24008 whole entry): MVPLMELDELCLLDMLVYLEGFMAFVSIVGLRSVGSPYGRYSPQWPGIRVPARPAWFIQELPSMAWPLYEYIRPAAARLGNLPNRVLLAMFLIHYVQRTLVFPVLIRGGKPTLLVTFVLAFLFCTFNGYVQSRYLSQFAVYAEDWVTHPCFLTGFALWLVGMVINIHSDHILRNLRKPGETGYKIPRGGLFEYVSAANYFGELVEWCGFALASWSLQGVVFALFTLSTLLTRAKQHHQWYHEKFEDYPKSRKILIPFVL
# Experiment summary: 5α-reductase assay, COS cell expressed rat type 1
# Condition: recombinant rat type 1; read-out: IC50 finasteride
pIC50: −log10 of the molar value.

Compound: CC(C)(C)NC(=O)[C@H]1CC[C@H]2[C@@H]3CC[C@H]4NC(=O)C=C[C@]4(C)[C@H]3CC[C@]12C [finasteride]
Experimental system: rat type 1 5α-reductase (Rattus norvegicus, UniProt P24008)
pIC50: 7.89
